Molecular target: Phospholipase A and acyltransferase 2 (Homo sapiens, UniProt Q9NWW9)
Sequence (Q9NWW9 whole entry): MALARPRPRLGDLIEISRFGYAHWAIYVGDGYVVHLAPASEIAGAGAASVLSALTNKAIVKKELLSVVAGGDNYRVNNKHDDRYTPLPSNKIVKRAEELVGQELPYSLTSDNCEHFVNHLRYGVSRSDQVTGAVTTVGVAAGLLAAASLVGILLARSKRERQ
Assay: Inhibition of full-length C-terminal FLAG-tagged human PLAAT2 expressed in HEK293T cell lysate preincubated for 30 mins followed by MB064 addition and measured after 20 mins by SDS-PAGE based ABPP analysis
In this section, each of the molecules is paired with its reported IC50.
Give the number; nM is assumed, so skip it.

O=C(CCc1ccc(Cl)cc1)C(=O)NCCc1ccccc1    631

From here, focus on the item given below.
[Q] For the molecule `O=C(CCCc1ccccc1)C(=O)NCCc1ccc(Oc2ccc(C(F)(F)F)cn2)cc1` , give its measured IC50 value.
[A] 158
